# study.system: T1, Bcd homeodomain (Drosophila melanogaster, UniProt P09081-2 77-166)
# T1 sequence: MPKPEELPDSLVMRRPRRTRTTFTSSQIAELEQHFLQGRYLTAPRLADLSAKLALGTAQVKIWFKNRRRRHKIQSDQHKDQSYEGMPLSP
# protocol.description: FP; 33 mM phosphate pH 7.0, 90 mM NaCl, 0.01% Tween 20, 0.1 mM DTT, 0.5% agarose; room temperature
# condition.context: tags: N-GST (pGEX-6P-1, kept); printed reverse strand differs at base 6 of strand 1 (G / C); complement of the forward strand used
measurement.name: Kd (nM)
Unit nM implied. Number only.

Worked cases, answers included:
# binder, Kd [nM]
records = [
    ("Bcd oligo 12 (dsDNA) DNA 1: TCGACGGAAATCCCTA DNA 2: TAGGGATTTCCGTCGA", 12.9),
    ("Bcd oligo 27 (dsDNA) DNA 1: TCGACGGTAATCACTA DNA 2: TAGTGATTACCGTCGA", 12.7),
]

I'd like to know its Kd. The binder in question is Bcd oligo 26 (dsDNA) DNA 1: TCGACGGTAATCTCTA DNA 2: TAGAGATTACCGTCGA 7.79
